test system: Radical scavenging activity; test: Antioxidant activity assessed as DPPH radical scavenging activity in ethanol solution at 5 ug/mL; type: functional
MEASURED QUANTITY: Activity

[[record]]
structure_notation = "Cc1cc(O)c(C(C)(C)C)cc1/N=C/c1cccnc1"
result = "20.1%"

[[record]]
structure_notation = "COc1ccc(/C=N/c2cc(C(C)C)c(O)cc2C)cc1OC"
result = "19.7%"

[[record]]
structure_notation = "O=C1O[C@H]([C@@H](O)CO)C(O)=C1O"
result = "18.9%"

[[record]]
structure_notation = "CCc1ccc(/C=N/c2cc(C(C)(C)C)c(O)cc2C)cc1"
result = "27.1%"

[[record]]
structure_notation = "Cc1cc(O)c(C(C)(C)C)cc1/N=C/c1cc(Br)c(O)c(Br)c1"
result = "23.9%"

[[record]]
structure_notation = "COc1ccc(/C=N/c2cc(C)c(O)cc2C(C)C)cc1"
result = "30.9%"

[[record]]
structure_notation = "CCCc1ccc(/C=N/c2cc(C)c(O)cc2C(C)C)cc1"
result = "23.9%"

[[record]]
structure_notation = "Cc1cc(O)c(C(C)C)cc1/N=C/c1ccc(C(C)(C)C)cc1"
result = "23.6%"

[[record]]
structure_notation = "Cc1cc(O)c(C(C)(C)C)cc1/N=C/c1ccccn1"
result = "22.4%"

[[record]]
structure_notation = "Cc1ccc(/C=N/c2cc(C(C)C)c(O)cc2C)cc1"
result = "27.3%"

[[record]]
structure_notation = "Cc1cc(O)c(C(C)(C)C)cc1/N=C/c1ccc([N+](=O)[O-])cc1"
result = "16.8%"

[[record]]
structure_notation = "Cc1cc(O)c(C(C)(C)C)cc1/N=C/c1ccc(O)cc1"
result = "31%"

[[record]]
structure_notation = "Cc1cc(O)c(C(C)(C)C)cc1/N=C/c1ccc2c(c1)OCO2"
result = "25.1%"

[[record]]
structure_notation = "Cc1cc(O)c(C(C)C)cc1/N=C/c1ccccc1O"
result = "29.2%"

[[record]]
structure_notation = "Cc1cc(/N=C/c2ccc([N+](=O)[O-])cc2)c(C(C)C)cc1O"
result = "17.1%"

[[record]]
structure_notation = "Cc1ccc(C(C)C)c(O)c1"
result = "3.07%"

[[record]]
structure_notation = "Cc1cc(/N=C/c2ccc(O)cc2)c(C(C)C)cc1O"
result = "33.7%"

[[record]]
structure_notation = "Cc1cc(O)c(C(C)(C)C)cc1/N=C/c1cc(Br)cc(Br)c1O"
result = "26.7%"

[[record]]
structure_notation = "Cc1cc(O)c(C(C)(C)C)cc1/N=C/c1ccc(C(C)C)cc1"
result = "28.7%"

[[record]]
structure_notation = "CCCc1ccc(/C=N/c2cc(C(C)(C)C)c(O)cc2C)cc1"
result = "28.6%"

[[record]]
structure_notation = "Cc1cc(O)c(C(C)C)cc1/N=C/c1ccc(C(C)C)cc1"
result = "24.5%"

[[record]]
structure_notation = "COc1ccc(/C=N/c2cc(C)c(O)cc2C(C)C)cc1OC"
result = "29.1%"

[[record]]
structure_notation = "Cc1cc(O)c(C(C)C)cc1/N=C/c1ccccn1"
result = "25.5%"

[[record]]
structure_notation = "COc1cc(/C=N/c2cc(C)c(O)cc2C(C)C)cc(OC)c1OC"
result = "26.4%"

[[record]]
structure_notation = "Cc1cc(O)c(C(C)C)cc1/N=C/c1ccccc1"
result = "31.6%"

[[record]]
structure_notation = "Cc1cc(/N=C/c2ccc(F)cc2)c(C(C)C)cc1O"
result = "22.5%"

[[record]]
structure_notation = "COc1ccc(/C=N/c2cc(C(C)(C)C)c(O)cc2C)cc1OC"
result = "27.4%"

[[record]]
structure_notation = "Cc1cc(/N=C/c2ccc(Cl)cc2)c(C(C)C)cc1O"
result = "27.8%"

[[record]]
structure_notation = "COc1cc(/C=N/c2cc(C(C)(C)C)c(O)cc2C)cc(OC)c1OC"
result = "25.9%"

[[record]]
structure_notation = "Cc1cc(O)c(C(C)C)cc1/N=C/c1cc(Br)c(O)c(Br)c1"
result = "24.1%"

[[record]]
structure_notation = "COc1cc(/C=N/c2cc(C(C)C)c(O)cc2C)cc(OC)c1"
result = "24.5%"

[[record]]
structure_notation = "Cc1cc(/N=C/c2ccccc2)c(C(C)C)cc1O"
result = "24.6%"

[[record]]
structure_notation = "Cc1cc(O)c(C(C)C)cc1/N=C/c1ccc(O)cc1"
result = "24.4%"

[[record]]
structure_notation = "CCc1ccc(/C=N/c2cc(C)c(O)cc2C(C)C)cc1"
result = "23.4%"

[[record]]
structure_notation = "COc1cc(/C=N/c2cc(C(C)(C)C)c(O)cc2C)cc(OC)c1"
result = "26.3%"

[[record]]
structure_notation = "Cc1cc(O)c(C(C)C)cc1/N=C/c1ccc(Cl)cc1"
result = "22.4%"

[[record]]
structure_notation = "Cc1cc(/N=C/c2cccnc2)c(C(C)C)cc1O"
result = "21.8%"

[[record]]
structure_notation = "Cc1cc(/N=C/c2cc(Br)c(O)c(Br)c2)c(C(C)C)cc1O"
result = "33.3%"

[[record]]
structure_notation = "COc1cc(/C=N/c2cc(C)c(O)cc2C(C)C)cc(OC)c1"
result = "27.5%"

[[record]]
structure_notation = "Cc1cc(O)c(C(C)(C)C)cc1/N=C/c1ccccc1O"
result = "29%"

[[record]]
structure_notation = "Cc1cc(O)c(C(C)(C)C)cc1/N=C/c1ccc(F)cc1"
result = "28.5%"

[[record]]
structure_notation = "Cc1cc(/N=C/c2ccc(C(C)C)cc2)c(C(C)C)cc1O"
result = "25.8%"

[[record]]
structure_notation = "Cc1cc(O)c(C(C)C)cc1/N=C/c1ccc(Br)cc1"
result = "27.7%"

[[record]]
structure_notation = "Cc1cc(O)c(C(C)C)cc1/N=C/c1ccc(F)cc1"
result = "21.7%"

[[record]]
structure_notation = "Cc1cc(O)c(C(C)(C)C)cc1/N=C/c1ccccc1"
result = "28%"

[[record]]
structure_notation = "COc1cc(/C=N/c2cc(C(C)C)c(O)cc2C)cc(OC)c1OC"
result = "26%"

[[record]]
structure_notation = "Cc1cc(/N=C/c2ccccc2O)c(C(C)C)cc1O"
result = "33%"

[[record]]
structure_notation = "Cc1cc(/N=C/c2cc(Br)cc(Br)c2O)c(C(C)C)cc1O"
result = "31.5%"


---

test system: Radical scavenging activity; test: Antioxidant activity assessed as DPPH radical scavenging activity in chloroform solution at 5 ug/mL; format: functional
MEASURED QUANTITY: Activity (%)

[[record]]
structure_notation = "COc1ccc(/C=N/c2cc(C(C)(C)C)c(O)cc2C)cc1"
measure_unit = "%"
numeric_readout = 19.7

[[record]]
structure_notation = "Cc1cc(/N=C/c2cc(Br)cc(Br)c2O)c(C(C)C)cc1O"
measure_unit = "%"
numeric_readout = 28.1

[[record]]
structure_notation = "Cc1cc(O)c(C(C)(C)C)cc1/N=C/c1cc(Br)cc(Br)c1O"
measure_unit = "%"
numeric_readout = 24.6

[[record]]
structure_notation = "Cc1cc(O)c(C(C)C)cc1/N=C/c1cc(Br)c(O)c(Br)c1"
measure_unit = "%"
numeric_readout = 25.2

[[record]]
structure_notation = "COc1cc(/C=N/c2cc(C(C)C)c(O)cc2C)cc(OC)c1"
measure_unit = "%"
numeric_readout = 21.8

[[record]]
structure_notation = "COc1ccc(/C=N/c2cc(C(C)C)c(O)cc2C)cc1OC"
measure_unit = "%"
numeric_readout = 20.6

[[record]]
structure_notation = "Cc1cc(O)c(C(C)(C)C)cc1/N=C/c1cc(Br)c(O)c(Br)c1"
measure_unit = "%"
numeric_readout = 24.2

[[record]]
structure_notation = "COc1ccc(/C=N/c2cc(C(C)C)c(O)cc2C)cc1"
measure_unit = "%"
numeric_readout = 21.8

[[record]]
structure_notation = "Cc1cc(/N=C/c2ccc(O)cc2)c(C(C)C)cc1O"
measure_unit = "%"
numeric_readout = 36.1

[[record]]
structure_notation = "Cc1cc(O)c(C(C)(C)C)cc1/N=C/c1ccccc1O"
measure_unit = "%"
numeric_readout = 24.9

[[record]]
structure_notation = "Cc1cc(/N=C/c2ccccc2O)c(C(C)C)cc1O"
measure_unit = "%"
numeric_readout = 32.6

[[record]]
structure_notation = "Cc1cc(O)c(C(C)C)cc1/N=C/c1ccccc1O"
measure_unit = "%"
numeric_readout = 23.9

[[record]]
structure_notation = "Cc1cc(O)c(C(C)C)cc1/N=C/c1ccc(O)cc1"
measure_unit = "%"
numeric_readout = 26

